Test system: SF-268
Assay Method Text: NCI tumour cell line growth inhibition, 48 h
Activity calls are given as the source filed them. Rule as the data show it: active = GI50 up to about 1.1 µM and inactive = higher.
Select the matching outcome among 1 = active, 0 = inactive

Solved entries (count: 5):
Molecule	Assigned Category
CC(=O)Nc1ccc(C(=O)NN2C(=O)C(Cl)C2c2ccccc2O)cc1 (centres undefined)	0
C=CCN(c1cc(OCc2ccccc2)c2c(c1)c(C)cn2S(=O)(=O)c1ccccc1)S(C)(=O)=O	0
COC(=O)C(C/C=C(\C)c1ccc(Cl)cc1)C(C)=O (centres undefined)	0
C/C=C/C1=CC(=O)C(O)C1O (centres undefined)	0
CCOC(=O)Nc1cc2ccccc2c(/N=N/c2ccccc2)c1O	0

[ask] For O=C(O)C(O)c1ccc(F)cc1 (centres undefined) , which call appears in the assay record?
[reply] 0

[ask] For `Cc1ccc(-c2cc(=O)c3cc(C)c(C)c(C(=O)O)c3o2)cc1` , which call appears in the assay record?
[reply] 0

[ask] For `CC(=O)NC1=C(N)C(=O)c2ccccc2C1=O` , which call appears in the assay record?
[reply] 0

[ask] For `COc1cc2c(c(OC)c1OC)-c1ccc(SC)c(=O)cc1[C@@H](NCc1ccc([N+](=O)[O-])cc1)CC2` , which call appears in the assay record?
[reply] 1

[ask] For CC(C)=CCC[C@@H](C)[C@H]1CC[C@@]2(C)[C@@H]3CC[C@H]4C(C)(C)[C@@H](O)CC[C@@]45C[C@@]35CC[C@]12C [CYCLOARTENOL] , which call appears in the assay record?
[reply] 0

###

System: SK-MEL-5
Assay Method Text: NCI tumour cell line growth inhibition, 48 h
Calls of active or inactive are those of the source. Cut-off read from the data, not from the text of the source: active = GI50 up to about 1.1 µM and inactive = higher.
Task for the reader: assign each of the following molecules its reported GI50.

# example entries with known answers
                           structure_smiles  endpoint_name            observed
0  COc1cc(CNc2nc3cc(C(F)(F)F)ccc3nc2C)cc(OC)c1OC           GI50  19.7 µM (inactive)
1  O=C(N/C(=C\c1cc(Cl)ccc1Cl)c1nc2cc(Cl)ccc2[nH]1)c1ccccc1           GI50  13.2 µM (inactive)
2      O=c1[nH]nc(-c2ccccc2)n1/N=C/c1ccncc1           GI50  44.7 µM (inactive)

I need GI50 for every entry listed below, if you could help.
1. CC(=O)Nc1ccc(NC(=O)CC(=O)Nc2ccc(NC(C)=O)cc2)cc1
2. COc1ccc(C(=O)/C=C/c2ccc(OCC(=O)N3CCN(c4ccccc4)CC3)cc2)cc1

[reply]
> 100 µM (inactive)
59.6 µM (inactive)

###

Test system: SNB-19
Assay Method Text: NCI tumour cell line growth inhibition, 48 h
The source made the active and inactive calls. Rule as the data show it: active = GI50 up to about 1.1 µM and inactive = higher.
Select the matching outcome among active, inactive

Compound	Assigned Category
COc1ccc(/C=C2\C[C@H]3[C@@H]4CCC5=C/C(=N/O)CC[C@]5(C)[C@H]4CC[C@]3(C)\C2=N\O)cc1	inactive

[ask] For C=CC/N=C1\NC(=O)C(CC(=O)Nc2ccc(C)cc2)S1 (centres undefined) , which call appears in the assay record?
[reply] inactive

[ask] For `CN(C)P(=O)(/C(N)=N/Nc1ccc([N+](=O)[O-])cc1)N(C)C` , which call appears in the assay record?
[reply] inactive

[ask] For `O=C(/C=C1/Nc2ccc([N+](=O)[O-])cc2N/C1=C/C(=O)c1ccc(Cl)cc1)c1ccc(Cl)cc1` , which call appears in the assay record?
[reply] inactive
